Data provenance: patent US9546176B2

Biological target: delF508-CFTR (Homo sapiens, UniProt P13569, DEL508-508)
Construct: endogenous in cells; host or cells: CFBE41o- human CF bronchial epithelial cells (delF508 homozygous)
Sequence (P13569 with tags, fused parts or gaps DEL508-508): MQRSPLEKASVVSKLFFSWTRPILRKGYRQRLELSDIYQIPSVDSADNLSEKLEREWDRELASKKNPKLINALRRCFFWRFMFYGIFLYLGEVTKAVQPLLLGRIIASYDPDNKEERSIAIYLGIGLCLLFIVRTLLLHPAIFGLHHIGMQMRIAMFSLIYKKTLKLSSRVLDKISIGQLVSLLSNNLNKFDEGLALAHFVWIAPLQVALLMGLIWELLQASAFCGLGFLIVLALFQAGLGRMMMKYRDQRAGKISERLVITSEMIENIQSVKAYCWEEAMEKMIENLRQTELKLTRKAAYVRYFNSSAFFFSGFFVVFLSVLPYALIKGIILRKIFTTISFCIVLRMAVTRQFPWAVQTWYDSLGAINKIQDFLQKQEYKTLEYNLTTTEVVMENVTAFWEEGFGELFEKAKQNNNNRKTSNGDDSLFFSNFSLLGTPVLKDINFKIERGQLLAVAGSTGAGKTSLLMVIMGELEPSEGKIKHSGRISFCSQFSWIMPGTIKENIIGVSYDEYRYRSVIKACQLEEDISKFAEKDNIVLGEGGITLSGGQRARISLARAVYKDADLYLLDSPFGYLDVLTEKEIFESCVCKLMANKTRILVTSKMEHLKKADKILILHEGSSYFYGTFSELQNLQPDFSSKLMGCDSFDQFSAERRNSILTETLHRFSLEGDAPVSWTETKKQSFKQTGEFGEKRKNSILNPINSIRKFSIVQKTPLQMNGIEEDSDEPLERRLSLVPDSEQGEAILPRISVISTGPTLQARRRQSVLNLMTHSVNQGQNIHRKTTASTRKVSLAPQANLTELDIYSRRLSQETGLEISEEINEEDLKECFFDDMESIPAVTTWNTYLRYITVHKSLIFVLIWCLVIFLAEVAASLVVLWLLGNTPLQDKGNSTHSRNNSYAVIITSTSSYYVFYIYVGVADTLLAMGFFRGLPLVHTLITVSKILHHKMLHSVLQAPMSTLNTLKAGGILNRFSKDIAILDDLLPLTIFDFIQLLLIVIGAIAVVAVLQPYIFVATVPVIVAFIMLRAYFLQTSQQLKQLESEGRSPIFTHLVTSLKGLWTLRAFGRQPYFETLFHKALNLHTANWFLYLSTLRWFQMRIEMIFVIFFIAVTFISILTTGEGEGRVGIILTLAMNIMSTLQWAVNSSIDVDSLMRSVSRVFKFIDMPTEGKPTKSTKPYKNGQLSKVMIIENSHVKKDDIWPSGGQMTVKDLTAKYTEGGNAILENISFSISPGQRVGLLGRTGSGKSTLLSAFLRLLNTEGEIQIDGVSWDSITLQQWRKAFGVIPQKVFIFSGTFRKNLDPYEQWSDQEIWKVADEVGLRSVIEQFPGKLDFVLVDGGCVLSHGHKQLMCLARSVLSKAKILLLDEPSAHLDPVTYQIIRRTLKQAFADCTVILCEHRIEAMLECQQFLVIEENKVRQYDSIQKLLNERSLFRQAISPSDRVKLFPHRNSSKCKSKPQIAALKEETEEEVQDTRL
Assay: SPQ halide-sensitive fluorescence dye assay for rescue of halide efflux (8-point concentration-response)
Format: cell-based
Conditions: CFBE41o- cells, 48 h
Procedure: The method of profiling can include detecting the rescue of halide efflux from a cell. The step of detecting a rescue of halide efflux from the cell can be monitored using the halide quenched dye 6-methoxy-N-(3-sulfopropyl)-quinolinium (SPQ, Molecular Probes Inc., Eugene, Oreg.). In this method, cells are treated with a compound as described herein for a period of time (e.g., 48 hours). The rescue or correction of halide efflux is then detected using the SPQ assay with the halide dye. […]
outcomeMeasure: ΔSPQ (difference between maximum and minimum SPQ values) (RFU)

# molecule, unitSymbol, assayResult
rows = [
    ("Cc1cccc(N2CC(C)Cn3c2nc2c3c(=O)[nH]c(=O)n2C)c1 (stereo not drawn) [IV-8]", "RFU", 3118),
]

(A) COc1ccc(N2CCCn3c2nc2c3c(=O)n(C)c(=O)n2C)cc1 [IV-4]
(B) CCn1c(=O)c2c(nc3n(-c4cccc(OC)c4)c(C)cn23)n(C)c1=O [Compound I-35]
In: In the pair A and B , the larger recorded ΔSPQ (difference between maximum and minimum SPQ values) belongs to which? Pick one; state its label.
Out: B
(B: 13989 RFU, A: 3614 RFU)

* * *

molecular target: delF508-CFTR (Homo sapiens, UniProt P13569, DEL508-508); construct: endogenous in cells; host or cells: CFBE41o- human CF bronchial epithelial cells (delF508 homozygous); experiment: SPQ halide-sensitive fluorescence dye assay for rescue of halide efflux (8-point concentration-response); type: cell-based; conditions: CFBE41o- cells, 48 h; read-out: SPQ EC50
outcomeMeasure: EC50 (µM)

# molecule, assayResult
measured = [
    ("CCn1c(=O)c2c(nc3n(-c4ccc(F)cc4)c(C)c(C)n23)n(C)c1=O", 10.1),
    ("COc1ccc(N2CCN(Cc3nc4c(c(=O)n(C)c(=O)n4C)n3C(C)C)CC2)cc1", 5.1),
    ("CCn1c(=O)c2c(nc3oc(C(C)(C)C)cn32)n(C)c1=O", 8.6),
    ("CCCn1c(=O)c2c(nc3n2C(C)C(C)=NN3CC(C)C)n(C)c1=O (centres unmarked)", 4),
    ("Cc1ccc(N2CC(C)Cn3c2nc2c3c(=O)[nH]c(=O)n2C)cc1 (centres unmarked)", 10.2),
]

(A) CCn1c(=O)c2c(nc3n(-c4ccccc4C)c(C)c(C)n23)n(C)c1=O
(B) CCCn1c(=O)[nH]c(=O)c2c3c(cnc21)C(=O)CC(c1cccs1)C3 (centres unmarked)
(C) CCCN1N=C(C)Cn2c1nc1c2c(=O)n(CC(C)C)c(=O)n1C
(D) COc1ccc(CN2CCN(c3nc4c(=O)n(C)c(=O)n(C)c4[nH]3)CC2)cc1
(E) CCn1c(=O)c2c(nc3n2CCCN3c2cccc(OC)c2)n(C)c1=O
In: Rank items: key EC50, increasing. Answer by naming the labels in the order asked.
Out: D, B, A, C, E
(D: 0.9 µM, B: 4.2 µM, A: 7.9 µM, C: 17.1 µM, E: 25.5 µM)

* * *

biological target: delF508-CFTR (Homo sapiens, UniProt P13569, DEL508-508); construct: endogenous in cells; host or cells: CFBE41o- human CF bronchial epithelial cells (delF508 homozygous); experiment: SPQ halide-sensitive fluorescence dye assay for rescue of halide efflux (8-point concentration-response); assay type: cell-based; conditions: CFBE41o- cells, 48 h; read-out: SPQ EC50
outcomeMeasure: EC50 (µM)

Past entries and their recorded results:
# compound, outcomeMeasure, assayResult
data = [
    ("CCCCn1c(=O)c2c(nc3n2CC(C)=NN3CCC)n(C)c1=O", "EC50", 7),
    ("C=CCn1c(=O)c2c(nc3n(-c4ccc(OC)cc4)c(C)c(C)n23)n(C)c1=O", "EC50", 3.1),
    ("CC1=NN(C)c2nc3c(c(=O)n(Cc4cccc(C)c4)c(=O)n3C)n2C1", "EC50", 14),
    ("C/C=C/Cn1c(=O)c2c(nc3n(CCCC)c(C)cn23)n(C)c1=O", "EC50", 18.4),
]

(A) CCCn1c(=O)c2c(nc3n(-c4ccccc4C)c(C)cn23)n(C)c1=O
(B) C=CCn1c(C)cn2c3c(=O)n(Cc4ccc(F)cc4)c(=O)n(C)c3nc12
In: In the pair A and B , the larger recorded EC50 belongs to which? Pick one; state its label.
Out: A

(A) C=CCn1c(=O)c2c(nc3n(C(C)c4ccccc4)c(C)c(C)n23)n(C)c1=O (stereo not drawn)
(B) C/C=C/Cn1c(=O)c2c(nc3n2CC(C)=NN3C(C)C)n(C)c1=O
In: Hi! Which is lower in terms of EC50, the first one A or the second one B ? Pick one; state its label.
Out: A
(A: 3.4 µM, B: 11.1 µM)

* * *

target: delF508-CFTR (Homo sapiens, UniProt P13569, DEL508-508); construct: endogenous in cells; host or cells: CFBE41o- human CF bronchial epithelial cells (delF508 homozygous); test: SPQ halide-sensitive fluorescence dye assay for rescue of halide efflux (8-point concentration-response); type: cell-based; settings: CFBE41o- cells, 48 h
outcomeMeasure: ΔSPQ (difference between maximum and minimum SPQ values) (RFU)

Past entries and their recorded results:
# compound, assayResult
records = [
    ("C/C=C/Cn1c(=O)c2c(nc3n(Cc4ccco4)c(C)cn23)n(C)c1=O [Compound I-52]", 6282),
    ("CCCn1c(C)cn2c3c(=O)n(Cc4ccccc4)c(=O)n(C)c3nc12 [Compound I-12]", 6259),
    ("COc1cccc(N2CC(C)Cn3c2nc2c3c(=O)n(C)c(=O)n2C)c1 (stereo not drawn) [IV-5]", 2122),
    ("CCn1c(=O)c2c(nc3n2C(C)C(C)=NN3CCC(C)C)n(C)c1=O (stereo not drawn) [Compound V-23]", 1055),
    ("CSc1nc(SCC(=O)O)c2sc3c(c2n1)COC(C)(C)C3 [Compound 2]", 4862),
]

(P) CCOCCn1c(=O)c2c(nc3n(-c4ccc(OC)cc4)c(C)c(C)n23)n(C)c1=O [Compound I-45]
(Q) CCc1ccc(N2CC(C)Cn3c2nc2c3c(=O)[nH]c(=O)n2C)cc1 (stereo not drawn) [IV-7]
In: Hi! Which is lower in terms of ΔSPQ (difference between maximum and minimum SPQ values), the first one P or the second one Q ? Pick one; state its label.
Out: Q

* * *

biological target: delF508-CFTR (Homo sapiens, UniProt P13569, DEL508-508); construct: endogenous in cells; host or cells: CFBE41o- human CF bronchial epithelial cells (delF508 homozygous); assay: SPQ halide-sensitive fluorescence dye assay for rescue of halide efflux (8-point concentration-response); format: cell-based; settings: CFBE41o- cells, 48 h; read-out: SPQ EC50
outcomeMeasure: EC50 (µM)

(I) Cn1c(=O)c2nc(N3CCOCC3)[nH]c2n(C)c1=O [Compound B-1]
(II) COc1ccc(C(=O)N2CCN(c3nc4c(=O)n(C)c(=O)n(C)c4[nH]3)CC2)cc1 [Compound B-7.12]
(III) CCn1c(=O)c2c(nc3n(-c4cccc(OC)c4)c(C)cn23)n(C)c1=O [Compound I-35]
In: Ranking by EC50 (descending) is requested for the entries above. Answer by naming the labels in the order asked.
Out: III, I, II

* * *

biological target: delF508-CFTR (Homo sapiens, UniProt P13569, DEL508-508); construct: endogenous in cells; host or cells: CFBE41o- human CF bronchial epithelial cells (delF508 homozygous); experiment: SPQ halide-sensitive fluorescence dye assay for rescue of halide efflux (8-point concentration-response); type: cell-based; settings: CFBE41o- cells, 48 h; read-out: SPQ EC50
outcomeMeasure: EC50 (µM)

# smilesInput, assayResult
rows = [
    ("CCCn1c(=O)c2c(nc3n2CCCN3Cc2ccccc2)n(C)c1=O", 10.7),
]

(a) C=CCn1c(=O)c2c(nc3n(CCC)c(C)cn23)n(C)c1=O
(b) C=C(C)CN1N=C(C)Cn2c1nc1c2c(=O)n(C)c(=O)n1C
In: In the pair a and b , the larger recorded EC50 belongs to which? Pick one; state its label.
Out: a

(I) CCc1ccc(-n2c(C)c(C)n3c4c(=O)n(CCCO)c(=O)n(C)c4nc23)cc1
(II) C=C(C)CN1N=C(C)Cn2c1nc1c2c(=O)n(CC)c(=O)n1C
In: In the pair I and II , the larger recorded EC50 belongs to which? Pick one; state its label.
Out: I

(A) CCn1c(=O)c2c(nc3n(Cc4ccco4)c(C)c(C)n23)n(C)c1=O
(B) Cc1c(C)n2c3c(=O)n(CCCO)c(=O)n(C)c3nc2n1Cc1ccco1
In: In the pair A and B , the larger recorded EC50 belongs to which? Pick one; state its label.
Out: B
(B: 10.6 µM, A: 7.1 µM)
